# System under test: Histone deacetylase (Homo sapiens) (UniProt Q13547+O15379+Q9UBN7+Q92769+Q9UQL6+Q8WUI4+Q9BY41+Q96DB2+P56524+Q9UKV0+Q969S8)
# Run parameters: at 100 µM
# Description: Percent inhibition against human histone deacetylase at 100 uM
Quantity measured: inhibition (%)

(A) O=C(CCCCCCS(=O)(=O)NO)Nc1ccccc1
(B) CC(=O)SCCCCCCC(=O)Nc1ccccc1
// query Name the one with the greater inhibition value, either A or B as given. Answer with the label corresponding to your selection.
// result B
(B: 85%, A: 14%)

###

Quick list: IC50 per entry.
# System under test: Histone deacetylase
# Procedure summary: Inhibitory concentration against human histone deacetylase
# Format: protein assay

// query Entry under review: `C#CCNCCCCCC(=O)Nc1ccccc1` . Reported IC50?
// result > 100 µM

// query Entry under review: `O=C(CCCCCCS(=O)(=O)NO)Nc1ccccc1` . Reported IC50?
// result > 100 µM

// query Entry under review: `CSCCCCCCC(=O)Nc1ccccc1` . Reported IC50?
// result > 100 µM

// query Entry under review: `CNC(=O)C(=O)CCCCCCC(=O)Nc1ccccc1` . Reported IC50?
// result 0.34 µM

// query Entry under review: `O=CN(O)CCCCCCCC(=O)Nc1ccccc1` . Reported IC50?
// result 2.8 µM

###

# System under test: Histone deacetylase
# Procedure summary: Inhibitory concentration against human histone deacetylase
# Type: protein assay
# Run parameters: read-out: IC50
Quantity measured: IC50 (µM)

Examples with answers:
{"columns": ["Molecular string", "IC50, µM"],
 "data": [
  ["O=C(NCCCCCCS)c1cc2ccccc2[nH]1", 0.1],
  ["CN(C)c1ccc(C(=O)NCCCCCCS)cc1", 0.61],
  ["O=C(CCCCCCS)Nc1cccc(-c2ccccc2)c1", 0.075],
  ["O=C(CCCCCCS)Nc1cccnc1", 0.11],
  ["O=C(CCCCCCS)Nc1nc(-c2ccccc2)cs1", 0.17]
]}

(A) O=C(CCCCCCS)Nc1ccc(Oc2ccccc2)cc1
(B) CN(C)c1ccc(NC(=O)CCCCCCS)cc1
// query Name the one with the greater IC50 value, either A or B as given. Answer with the label corresponding to your selection.
// result B

(A) O=C(CCCCCCS)Nc1ccc(-c2ccccc2)cc1
(B) O=C(NCCCCCCS)c1ccccc1
// query I would appreciate it if you could say which entry, A or B , has the lower IC50 value. Answer with the label corresponding to your selection.
// result B

###

# System under test: Histone deacetylase (Homo sapiens) (UniProt Q13547+O15379+Q9UBN7+Q92769+Q9UQL6+Q8WUI4+Q9BY41+Q96DB2+P56524+Q9UKV0+Q969S8)
# Run parameters: at 100 µM
Quantity measured: inhibition (%)

{"columns": ["Molecular string", "inhibition [%]"],
 "data": [
  ["CSCCCCCCC(=O)Nc1ccccc1", 11]
]}

(a) C#CCNCCCCCC(=O)Nc1ccccc1
(b) C#CCN(CC#C)CCCCCC(=O)Nc1ccccc1
// query Name the one with the greater inhibition value, either a or b as given. Answer with the label corresponding to your selection.
// result a
(a: 14%, b: 0%)

###

# System under test: Histone deacetylase
# Procedure summary: Inhibitory concentration against human histone deacetylase
# Assay type: protein assay
Quantity measured: IC50

{"columns": ["Molecular string", "Quantity measured", "Endpoint value"],
 "data": [
  ["O=C(CCCCCCS)Nc1nc2ccccc2s1", "IC50", "0.34 µM"],
  ["NCC(=O)NCCCCCC(=O)Nc1ccccc1", "IC50", "> 100 µM"]
]}

// query What value of IC50 on Histone deacetylase does `C#CCN(CC#C)CCCCCC(=O)Nc1ccccc1` have?
// result > 100 µM

// query What value of IC50 on Histone deacetylase does `O=C(CO)NCCCCCC(=O)Nc1ccccc1` have?
// result > 100 µM

###

# System under test: Histone deacetylase
# Procedure summary: Inhibitory concentration against human histone deacetylase
# Assay type: protein assay
# Run parameters: read-out: IC50
Quick list: pIC50 per entry.
Notebook: values listed as pIC50 are -log10 of the concentration (mol/L).

{"columns": ["Molecular string", "pIC50"],
 "data": [
  ["SCCCCCCOc1ccccc1", 4.96],
  ["O=C(NCCCCCCS)c1ccc2ccccc2c1", 7.07]
]}

// query Entry under review: `O=C(CCCCCCS)Nc1cccc(Oc2ccccc2)c1` . Reported pIC50?
// result 6.68
